- ASSAY_METHOD_TEXT: Aqueous solubility of the compound incubated for 12 hrs by UV-Vis spectrophotometry
- Type: physicochemical
- ASSAY_SETUP: buffer

MOLECULE: C=C[C@]1(C)C[C@@H](OC(=O)CSc2nc3cc[n+](Cc4cc(F)c(F)cc4F)cc3s2)[C@]2(C)[C@H](C)CC[C@]3(CCC(=O)[C@H]32)[C@@H](C)[C@@H]1O.[Br-]
solubility at 12 h, µg/mL: 485
--
MOLECULE: C=C[C@]1(C)C[C@@H](OC(=O)CSc2nc3cc[n+](Cc4cc(OC)cc(OC)c4)cc3s2)[C@]2(C)[C@H](C)CC[C@]3(CCC(=O)[C@H]32)[C@@H](C)[C@@H]1O.[Br-]
solubility at 12 h, µg/mL: 94
--
MOLECULE: C=C[C@]1(C)C[C@@H](OC(=O)CSc2nc3cc[n+](Cc4ccc(C(C)(C)C)cc4)cc3[nH]2)[C@]2(C)[C@H](C)CC[C@]3(CCC(=O)[C@H]32)[C@@H](C)[C@@H]1O.[Br-]
solubility at 12 h, µg/mL: 486
--
MOLECULE: Br.C=C[C@]1(C)C[C@@H](OC(=O)CSc2nc3cc[n+](Cc4ccc([N+](=O)[O-])cc4)cc3[nH]2)[C@]2(C)[C@H](C)CC[C@]3(CCC(=O)[C@H]32)[C@@H](C)[C@@H]1O
solubility at 12 h, µg/mL: 691
--
MOLECULE: C=C[C@]1(C)C[C@@H](OC(=O)CSc2nc3cc[n+](Cc4ccc(Cl)cc4)cc3[nH]2)[C@]2(C)[C@H](C)CC[C@]3(CCC(=O)[C@H]32)[C@@H](C)[C@@H]1O.[Br-]
solubility at 12 h, µg/mL: 419
--
MOLECULE: C=C[C@]1(C)C[C@@H](OC(=O)CSc2nc3cc[n+](Cc4cc(C)cc(C)c4)cc3s2)[C@]2(C)[C@H](C)CC[C@]3(CCC(=O)[C@H]32)[C@@H](C)[C@@H]1O.[Br-]
solubility at 12 h, µg/mL: 392
--
MOLECULE: C=C[C@]1(C)C[C@@H](OC(=O)CSc2nc3cc[n+](Cc4ccc(Cl)cc4)cc3s2)[C@]2(C)[C@H](C)CC[C@]3(CCC(=O)[C@H]32)[C@@H](C)[C@@H]1O.[Br-]
solubility at 12 h, µg/mL: 449
--
MOLECULE: C=C[C@]1(C)C[C@@H](OC(=O)CSc2nc3cc[n+](Cc4ccc(C#N)cc4)cc3[nH]2)[C@]2(C)[C@H](C)CC[C@]3(CCC(=O)[C@H]32)[C@@H](C)[C@@H]1O.[Br-]
solubility at 12 h, µg/mL: 481
--
MOLECULE: C=C[C@]1(C)C[C@@H](OC(=O)CSc2nc3cc[n+](Cc4cc(F)c(F)cc4F)cc3[nH]2)[C@]2(C)[C@H](C)CC[C@]3(CCC(=O)[C@H]32)[C@@H](C)[C@@H]1O.[Br-]
solubility at 12 h, µg/mL: 539
--
MOLECULE: C=C[C@]1(C)C[C@@H](OC(=O)CSc2nc3cc[n+](Cc4ccc(C#N)cc4)cc3s2)[C@]2(C)[C@H](C)CC[C@]3(CCC(=O)[C@H]32)[C@@H](C)[C@@H]1O.[Br-]
solubility at 12 h, µg/mL: 451
--
MOLECULE: C=C[C@]1(C)C[C@@H](OC(=O)CSCCN(CC)CC)[C@]2(C)[C@H](C)CC[C@]3(CCC(=O)[C@H]32)[C@@H](C)[C@@H]1O [TIAMULIN]
solubility at 12 h, µg/mL: 128
--
MOLECULE: C=C[C@]1(C)C[C@@H](OC(=O)CSc2nc3cc[n+](Cc4ccc(OC)cc4)cc3[nH]2)[C@]2(C)[C@H](C)CC[C@]3(CCC(=O)[C@H]32)[C@@H](C)[C@@H]1O.[Br-]
solubility at 12 h, µg/mL: 150

// provenance: ChEMBL document CHEMBL6096719
